I'd be grateful if you could share measured apparent Kd for these entries.
- Tested on: MS2 coat protein
- Measurement Notes: apparent Kd, MS2 coat protein; higher = weaker binding; RNA-MaP array; FMN 200 µM where present
- Measurement Setup: ligand present: flavin mononucleotide; designed as: ON switch for flavin mononucleotide
Just the number please, in µM, no unit attached.

Any idea what apparent Kd came out for CGGGCCGUCUACAUGAGGAUCACCCAUGUGACGGAAGUAACACAGGAUAUCCUCUAAUUGUAGACGGAGAAGGGUGGCCCGAAU on MS2 coat protein?
0.159

And then CGGCCGGGUCGAGGAUAUAAGUCUAGGACAUGAGGAUCACCCAUGUAUGUCUUAGAAGGCGACCCGGCCAGCCUGUUACAGGCA , what is it?
0.00721

Try the sequence CAUGUCCUCACAGGAUAUGCACCACUUUGUGGUGCAGAAGGGUGGUAACAUGAGGAUCACCCAUGUGGACAUGAUAUAUUUAAU
0.294

Repeat for the following sequence: UUUAUACAUGAGGAUCACCCAUGUCAACAAAGUCGAGGAUAUGGGCAUAUUAUCUUAUUUCCAGAAGGCGAAUUCU
0.0733

Here is the next sequence: AAUUUAAUACAUGAGGAUCACCCAUGUAAAUUAAUUAAGAUCAAGGAUAUCAGCUCGUUUAGAGCUGAGAAGGUGAUCACAUGU
0.097

Could you do the same for GGACAUCCCACAGGAUAUGCUGGACUUUGUCCAGCAGAAGGGUGAAGAACAUGAGGAUCACCCAUGUGGAUGUCCAUAUUUAAU , please?
0.0954

Would you kindly repeat that for GCUGUGGCAUGAGGAUAUGGUCAGCUUUGCUGACCAGAAGGCAUGUCAAUAGACAUGAGGAUCACCCAUGUAGUUAACACAGCA ?
0.0407
